Molecular target: full length human PD-L1 (amino acids 1 to 290 of NP_054862.1) on transfected cells (human, UniProt Q9NZQ7 19-290)
Sequence (Q9NZQ7 19-290 limits assumed): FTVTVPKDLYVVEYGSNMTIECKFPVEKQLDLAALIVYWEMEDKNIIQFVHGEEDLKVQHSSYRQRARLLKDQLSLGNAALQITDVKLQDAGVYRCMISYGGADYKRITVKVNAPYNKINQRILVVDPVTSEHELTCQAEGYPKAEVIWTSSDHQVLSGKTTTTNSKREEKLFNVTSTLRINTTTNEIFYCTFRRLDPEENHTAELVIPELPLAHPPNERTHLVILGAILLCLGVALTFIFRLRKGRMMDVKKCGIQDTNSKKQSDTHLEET
Test: cell-based or functional assay
// values below are reported Emax mean [%] @ 100 nM

binder	Emax mean [%] @ 100 nM [%]
H2aM8314N (antibody, V domains shown, human variable regions, mouse IgG2 Fc (H2aM prefix); also called H2M8314N) VH: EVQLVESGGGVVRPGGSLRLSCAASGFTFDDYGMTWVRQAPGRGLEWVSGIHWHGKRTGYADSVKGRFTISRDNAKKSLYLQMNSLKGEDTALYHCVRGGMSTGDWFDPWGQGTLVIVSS VL: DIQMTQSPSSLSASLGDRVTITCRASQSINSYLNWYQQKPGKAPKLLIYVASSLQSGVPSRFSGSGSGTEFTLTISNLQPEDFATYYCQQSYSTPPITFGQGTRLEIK	235
H2aM8321N (antibody, V domains shown, human variable regions, mouse IgG2 Fc (H2aM prefix); also called H2M8321N) VH: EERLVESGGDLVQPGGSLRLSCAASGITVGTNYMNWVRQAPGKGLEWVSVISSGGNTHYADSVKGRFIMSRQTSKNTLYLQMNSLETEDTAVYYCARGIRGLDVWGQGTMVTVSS VL: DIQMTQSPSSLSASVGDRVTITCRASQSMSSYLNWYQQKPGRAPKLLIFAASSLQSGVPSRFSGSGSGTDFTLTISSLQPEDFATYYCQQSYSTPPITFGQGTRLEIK	117
H1H8314N (antibody, V domains shown, human IgG1 Fc form (H1H prefix) of numerical identifier 8314) VH: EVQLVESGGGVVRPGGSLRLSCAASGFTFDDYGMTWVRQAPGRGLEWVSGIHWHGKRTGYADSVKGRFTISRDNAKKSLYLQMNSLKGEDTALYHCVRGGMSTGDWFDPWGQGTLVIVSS VL: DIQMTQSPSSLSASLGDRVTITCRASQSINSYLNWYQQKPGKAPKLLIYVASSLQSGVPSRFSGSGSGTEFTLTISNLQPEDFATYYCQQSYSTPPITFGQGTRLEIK	148
H2aM8323N (antibody, V domains shown, human variable regions, mouse IgG2 Fc (H2aM prefix); also called H2M8323N) VH: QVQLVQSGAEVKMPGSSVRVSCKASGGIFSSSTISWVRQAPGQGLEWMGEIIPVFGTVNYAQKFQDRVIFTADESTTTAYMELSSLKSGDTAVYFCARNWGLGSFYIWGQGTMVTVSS VL: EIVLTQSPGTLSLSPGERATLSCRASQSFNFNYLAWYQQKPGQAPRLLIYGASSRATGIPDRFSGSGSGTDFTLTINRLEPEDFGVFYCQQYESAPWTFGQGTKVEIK	173
H2aM8317N (antibody, V domains shown, human variable regions, mouse IgG2 Fc (H2aM prefix); also called H2M8317N) VH: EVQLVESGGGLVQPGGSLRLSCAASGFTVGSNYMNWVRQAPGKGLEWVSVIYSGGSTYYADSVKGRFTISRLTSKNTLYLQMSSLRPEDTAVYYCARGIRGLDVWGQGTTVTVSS VL: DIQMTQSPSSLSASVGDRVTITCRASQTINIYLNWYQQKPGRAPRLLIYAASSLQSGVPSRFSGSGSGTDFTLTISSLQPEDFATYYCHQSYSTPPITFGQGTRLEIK	109
